Quick reference for pIC50 among some compounds
Molecular target: human CYP2D6 (Homo sapiens, UniProt P10635)
Sequence (P10635 whole entry): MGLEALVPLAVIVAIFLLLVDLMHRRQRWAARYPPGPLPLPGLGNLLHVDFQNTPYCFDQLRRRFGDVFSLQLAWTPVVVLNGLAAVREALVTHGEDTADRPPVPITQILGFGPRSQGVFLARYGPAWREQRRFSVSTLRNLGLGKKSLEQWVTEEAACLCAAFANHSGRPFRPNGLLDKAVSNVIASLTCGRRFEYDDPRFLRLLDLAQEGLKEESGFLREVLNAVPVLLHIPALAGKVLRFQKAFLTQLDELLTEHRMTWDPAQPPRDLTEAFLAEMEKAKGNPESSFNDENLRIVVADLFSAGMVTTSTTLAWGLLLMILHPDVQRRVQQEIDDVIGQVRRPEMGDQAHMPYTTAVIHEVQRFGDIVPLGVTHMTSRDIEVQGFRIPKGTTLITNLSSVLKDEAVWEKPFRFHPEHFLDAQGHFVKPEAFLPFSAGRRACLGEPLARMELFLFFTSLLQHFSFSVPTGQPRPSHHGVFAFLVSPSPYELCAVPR
Experiment: biochemical
pIC50: −log10 of the molar value. Where a name gives a salt, the structure may show the parent alone.
Quantity: pIC50

compound="CN1CCCN=C1COC(=O)C(O)(c1ccccc1)C1CCCCC1 (stereo not drawn) [Oxyphencyclimine hydrochloride]" reported_result=6.04
compound="O=C1C2(Cl)C3(Cl)C4(Cl)C(Cl)(Cl)C5(Cl)C3(Cl)C1(Cl)C5(Cl)C24Cl (stereo not drawn)" reported_result=4.17
compound=CCCN(CCc1cccs1)[C@H]1CCc2c(O)cccc2C1 reported_result=6.40
compound=CCN(CC)CCOC(=O)C(C)(c1ccccc1)c1ccccc1 reported_result=5.80
compound=COc1cc(C(C)=O)ccc1OCCCN1CCC(c2noc3cc(F)ccc23)CC1 reported_result=5.00
compound=COP(=S)(OC)SCN1C(=O)c2ccccc2C1=O reported_result=4.61
compound=COP(=S)(OC)Oc1ccc(SC)c(C)c1 reported_result=4.43
compound="CCNP(=S)(OC)O/C(C)=C/C(=O)OC(C)C (stereo not drawn)" reported_result=4.55
compound=CN(C)[C@@H](CCOc1cccc2ccccc12)c1ccccc1 reported_result=6.01
compound="CCC(=O)O[C@H]1[C@H](O[C@@H]2[C@@H](C)[C@H](O[C@H]3C[C@@](C)(OC)[C@@H](O)[C@H](C)O3)[C@@H](C)C(=O)O[C@H](CC)[C@@](C)(O)[C@H](O)[C@@H](C)C(=O)[C@H](C)C[C@@]2(C)O)O[C@H](C)C[C@@H]1N(C)C [Erythromycin estolate]" reported_result=4.52
compound="Clc1cccc(C(c2ccc3[nH]cnc3c2)n2ccnc2)c1 (stereo not drawn)" reported_result=4.51
compound=CCOP(=S)(OCC)SCn1c(=O)oc2cc(Cl)ccc21 reported_result=4.80
compound="C=CCOc1cc(Cl)ccc1C(=O)NCCN(CC)CC [Alloclamide]" reported_result=6.55
compound=c1ccc(CCCc2ccncc2)cc1 reported_result=5.41
compound="CCOP(=S)(NC(C)C)Oc1ccccc1C(=O)OC(C)C (stereo not drawn)" reported_result=4.22

====

Measurement record for CYP3A4 (Homo sapiens); quantity recorded: AC50.
Quantity: AC50 (µM)

compound="CCN(CC)CCOc1ccc(Cc2ccccc2)cc1.Cl [Tesmilifene hydrochloride]" quantity=AC50 unit_label=µM reported_result=14.2
compound="C/C=C(\\C)C(=O)OCc1ccccc1 [Benzyl tiglate]" quantity=AC50 unit_label=µM reported_result=39
compound=COC(OC)(C(=O)c1ccccc1)c1ccccc1 quantity=AC50 unit_label=µM reported_result=10.2
compound=C/C=C1\C(=O)C[C@H]2[C@@H]3CCC4=CC(=O)CC[C@]4(C)[C@H]3CC[C@]12C quantity=AC50 unit_label=µM reported_result=3.8
compound=OCc1cccc(Oc2ccccc2)c1 quantity=AC50 unit_label=µM reported_result=64.4

====

Molecular target: human CYP1A2 (Homo sapiens)
Sequence (P05177 whole entry): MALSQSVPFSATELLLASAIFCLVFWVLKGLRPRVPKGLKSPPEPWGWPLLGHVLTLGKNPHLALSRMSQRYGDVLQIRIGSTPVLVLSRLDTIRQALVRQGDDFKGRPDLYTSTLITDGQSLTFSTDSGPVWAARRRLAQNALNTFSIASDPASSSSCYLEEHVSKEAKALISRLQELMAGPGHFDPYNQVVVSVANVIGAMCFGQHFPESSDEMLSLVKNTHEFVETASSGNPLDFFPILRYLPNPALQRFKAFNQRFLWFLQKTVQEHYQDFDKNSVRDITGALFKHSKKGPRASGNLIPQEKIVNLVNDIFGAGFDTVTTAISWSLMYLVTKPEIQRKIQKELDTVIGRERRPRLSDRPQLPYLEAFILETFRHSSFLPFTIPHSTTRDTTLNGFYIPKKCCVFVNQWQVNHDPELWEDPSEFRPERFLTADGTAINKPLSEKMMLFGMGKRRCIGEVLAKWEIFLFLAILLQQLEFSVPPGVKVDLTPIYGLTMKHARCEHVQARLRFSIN
Assay: biochemical
Quantity: AC50 (µM)

compound="COC(=O)c1c(Cl)c(Cl)c(C(=O)OC)c(Cl)c1Cl [Chlorthal-dimethyl]" quantity=AC50 reported_result=0.29
compound="CCCCCCCCCCCCN1CCCC1=O [1-Dodecyl-2-pyrrolidinone]" quantity=AC50 reported_result=29.7
compound="CCCN(CCc1cccs1)[C@H]1CCc2c(O)cccc2C1 [Rotigotine]" quantity=AC50 reported_result=31
compound="CC(C)(C)c1ccc(OC(=O)c2ccccc2O)cc1 [4-tert-Butylphenyl salicylate]" quantity=AC50 reported_result=40.1
